# Test system: SF-268 CNS
# experiment-notes: NCI tumour cell line growth inhibition, 48 h
endpoint-name: TGI

1. NC(=O)N/N=C(\CC1OC(=O)c2ccccc21)c1ccco1 (centres undefined): > 100 µM
2. CN(O)c1nc(N(C)O)nc(N2CCOCC2)n1: > 100 µM
3. CCc1c2c([nH]c(=S)c1C#N)CCC2: > 100 µM
4. O=C1c2ccccc2C(O)(O)C1(O)C1(O)C(=O)c2ccccc2C1(O)O (centres undefined): > 100 µM
5. c1ccc2c(c1)cc(C1NCCc3[nH]cnc31)c1ccccc12 (centres undefined): > 100 µM
6. C=CCN1C(=O)C=C(c2ccccc2)n2ncc3cccc1c32: > 100 µM
7. COc1cc2c(oc(=O)c3c4oc([Si](C)(C)C)cc4cc(OC)c23)c2cccc(OCc3ccccc3)c12: > 70.7 µM
8. COc1ccc(Nc2nnc(-c3nsc4ccccc34)s2)cc1: > 100 µM
9. O=C1/C(=C/c2cccc(Br)c2)CCc2ccccc21: 21.8 µM
10. CN(CCCCCl)P(=O)(OCc1ccc([N+](=O)[O-])o1)OC[C@H]1O[C@@H](n2cc(F)c(=O)[nH]c2=O)C[C@@H]1O (some centres undefined): 13.2 µM

Query :: So what does the record say about TGI for COc1cc([N+](=O)[O-])c(OC)cc1-c1nc2sc(Cl)cn2c1/C(N)=N/C(=N)N ?
Result :: 11.8 µM

Query :: So what does the record say about TGI for CC(CCN)(CCN)[N+](=O)[O-] ?
Result :: > 100 µM

Query :: So what does the record say about TGI for CC1C2(C)OC(=N)C(C#N)(C(c3ccccc3)O2)C1(C#N)C#N (centres undefined) ?
Result :: 76.1 µM

Query :: So what does the record say about TGI for CCOc1ccccc1N1C(=O)C(=O)C(c2nc3ccccc3o2)C(=O)C1=O ?
Result :: > 100 µM

* * *

# Tested on: EKVX NSCLC
# experiment-notes: NCI tumour cell line growth inhibition, 48 h
endpoint-name: TGI

1. CCOC(=O)c1cnc2oc3ccc(O)cc3c2c1C: > 100 µM

Next:
Query :: Fill in the recorded TGI for this compound, with EKVX NSCLC as test system: CN1CCOC(c2ccc(Cl)cc2)O1 (stereo not given)
Result :: > 100 µM

* * *

# System: HOP-92 NSCLC
# experiment-notes: NCI tumour cell line growth inhibition, 48 h
Property: TGI; scope: individual molecules

// below: answered molecules
1) COc1ccc2c3c1O[C@]1(C)C34CCN(C)C(C2)C42C=C[C@@]1(OC)c1c(O)ccc(O)c12: > 100 µM
2) COc1ccc(-c2c[nH]c(C(=O)O)c2-c2cc(OC)c(OC)c(OC)c2)cc1: > 100 µM
3) CN(CCCCCl)P(=O)(OCc1ccc([N+](=O)[O-])o1)OC[C@H]1O[C@@H](n2cc(F)c(=O)[nH]c2=O)C[C@@H]1O (some centres undefined): 20.3 µM

Next:
Query :: Fill in the recorded TGI for this molecule, with HOP-92 NSCLC as test system: Cn1c2ccccc2n2c(N=O)c(-c3ccccc3)nc12
Result :: > 100 µM

* * *

Property: TGI; scope: individual molecules
# System: MDA-N
# experiment-notes: NCI tumour cell line growth inhibition, 48 h

// below: answered molecules
1) Cc1ccc(S(=O)(=O)n2cc(-c3cc(C(F)(F)F)ccn3)c3cc(Br)ccc32)cc1: > 100 µM
2) O=[N+]([O-])O.[Cu+2].[NH-]CC[NH-].[NH-]CC[NH-]: > 10 µM

Query :: So what does the record say about TGI for CC[C@]1(Cc2ccc(OC)c(OC)c2)C=[N+]([O-])O[C@H](OC2CCCC2(c2ccccc2)c2ccccc2)[C@@H]1OC(=O)c1ccccc1 (some centres not stated) ?
Result :: > 100 µM

Query :: So what does the record say about TGI for COC(=O)/C=C(/C)n1nc2ccccc2n1 ?
Result :: > 100 µM

Query :: So what does the record say about TGI for Cc1cc2ccccc2n2c1nc1ccccc12 ?
Result :: > 100 µM

Query :: So what does the record say about TGI for CCC1C2Cc3ccc(O)cc3C1(CC)CCN2C (configuration not stated) ?
Result :: > 100 µM

Query :: So what does the record say about TGI for Cc1cc2c(cc1-c1cc3c(cc1C)C(C(C)C)=C(O)C(=O)/C3=C\Nc1c3ccccc3nc3ccccc13)/C(=C/Nc1c3ccccc3nc3ccccc13)C(=O)C(O)=C2C(C)C ?
Result :: 15.8 µM

Query :: So what does the record say about TGI for O=C1C(Cl)C2(CC(/C=C/c3ccccc3Cl)=NN2c2cccc(S(=O)(=O)O)c2)N1c1nc2ccccc2s1 (configuration not stated) ?
Result :: > 100 µM

Query :: So what does the record say about TGI for Cc1ccc2c(c1)[nH]c(=S)n2/C=C1\C(=O)Oc2ccccc2C1=O ?
Result :: > 100 µM

Query :: So what does the record say about TGI for Cn1c(=O)c(Br)c(C=O)n(CCO[N+](=O)[O-])c1=O ?
Result :: 17.3 µM

* * *

Property: TGI; scope: individual compounds
# Tested on: MDA-MB-231 breast
# experiment-notes: NCI tumour cell line growth inhibition, 48 h

// below: answered compounds
1) CN1CCOC(c2ccc(Cl)cc2)O1 (centres undefined): > 100 µM
2) CCOC(=O)C1=C(C)OC2(O)C=CC(O)=C3C(=O)N(c4ccccc4)C(=O)C312 (centres undefined): > 100 µM
3) O=C(O)C(/C=C/c1ccccc1)c1ccccc1 (centres undefined): > 100 µM

Next:
Query :: So what does the record say about TGI for CC(C)OC(=O)c1ccc(NCc2cc(O)ccc2O)cc1Cl ?
Result :: > 54 µM

* * *

# Tested on: K-562 leukemia
# experiment-notes: NCI tumour cell line growth inhibition, 48 h
Property: TGI; scope: individual compounds

1. CC(C)(C)c1ccc(Oc2nccc(-c3c(-c4ccc(F)cc4)ncn3C3CCNCC3)n2)cc1: 4.7 µM
2. COc1ccc(-c2c[nH]c(C(=O)O)c2-c2cc(OC)c(OC)c(OC)c2)cc1: > 100 µM

Query :: Fill in the recorded TGI for this compound, with K-562 leukemia as test system: C[N+](C)(C)CC(=O)N/N=C/c1oc(-c2c(O)ccc3ccccc23)c(-c2c(O)ccc3ccccc23)c1[N+](=O)[O-]
Result :: > 100 µM

Query :: Fill in the recorded TGI for this compound, with K-562 leukemia as test system: N#Cc1c(N)nc(-c2ccc(Cl)cc2)c2c1-c1ccccc1S(=O)(=O)CC2
Result :: > 100 µM

Query :: Fill in the recorded TGI for this compound, with K-562 leukemia as test system: O=C1/C(=C/c2cccc(Br)c2)CCc2ccccc21
Result :: 29.9 µM

Query :: Fill in the recorded TGI for this compound, with K-562 leukemia as test system: Nc1ccnc(=O)[nH]1
Result :: > 100 µM

Query :: Fill in the recorded TGI for this compound, with K-562 leukemia as test system: COc1ccc(CN2c3ccccc3Sc3ccccc32)c(F)c1
Result :: > 100 µM

* * *

Property: TGI; scope: individual compounds
# System: NCI-H226 lung
# experiment-notes: NCI tumour cell line growth inhibition, 48 h

// below: answered compounds
1) C=C(C)C1=CCC[C@]2(C1)N=C(OC)[C@@H](C(C)C)N=C2OC: > 100 µM
2) O=C1/C(=C/c2cccc(Br)c2)CCc2ccccc21: 31.1 µM
3) O=C(O)C(/C=C/c1ccccc1)c1ccccc1 (stereo unspecified): > 100 µM
4) O=C1Nc2ccccc2/C1=C/C(=O)c1coc2c1C(=O)c1ccccc1C2=O: > 100 µM
5) O=C1c2cc(Cl)ccc2-n2cnnc2C2CSCN12 (stereo unspecified): > 100 µM

Query :: So what does the record say about TGI for COc1ccc(/C(COc2ccc3c(=O)cc(-c4ccccc4)oc3c2)=N\O)cc1 ?
Result :: > 50 µM

Query :: So what does the record say about TGI for CCC[CH2][Sn]1([CH2]CCC)[O]C(=O)c2cccnc2[O]1 ?
Result :: 23 µM

Query :: So what does the record say about TGI for COc1ccc(CN2c3ccccc3Sc3ccccc32)c(F)c1 ?
Result :: > 100 µM

Query :: So what does the record say about TGI for OC1(c2cccs2)c2cccc(Cl)c2C(O)(c2cccs2)c2c(Cl)cccc21 (stereo unspecified) ?
Result :: > 100 µM

Query :: So what does the record say about TGI for C#Cc1c(F)ccc2cc(O)cc(-c3ncc4c(N5CC6CCC(C5)N6)nc(OC[C@@]56CCCN5C[C@H](F)C6)nc4c3F)c12 ?
Result :: 35.1 µM

Query :: So what does the record say about TGI for N#CC(NC12CC3CC(CC(C3)C1)C2)c1ccc2c(c1)OCO2 (stereo unspecified) ?
Result :: > 100 µM

Query :: So what does the record say about TGI for CN(O)c1nc(N(C)O)nc(N2CCOCC2)n1 ?
Result :: > 100 µM

Query :: So what does the record say about TGI for COc1ccc2[nH]cc(CCNC(=O)[C@H](Cc3ccccc3)NC(=O)[C@@H](NCC(F)(F)F)C(C)C)c2c1 ?
Result :: 44 µM

Query :: So what does the record say about TGI for C=CCN1C(=O)/C(=C/c2ccc(OC)cc2)N=C1SC/C=C/C ?
Result :: > 100 µM

Query :: So what does the record say about TGI for Cc1cccc(C)c1NC(=O)C(C#N)C1=C(Cl)C(=O)c2ccccc2C1=O (stereo unspecified) ?
Result :: 17.4 µM
